# experimental target: Cyno CD3εδ-Fc (cynomolgus) (UniProt Q95LI8)
# Sequence (chain, as listed by the source mutant, chain 1 of 2): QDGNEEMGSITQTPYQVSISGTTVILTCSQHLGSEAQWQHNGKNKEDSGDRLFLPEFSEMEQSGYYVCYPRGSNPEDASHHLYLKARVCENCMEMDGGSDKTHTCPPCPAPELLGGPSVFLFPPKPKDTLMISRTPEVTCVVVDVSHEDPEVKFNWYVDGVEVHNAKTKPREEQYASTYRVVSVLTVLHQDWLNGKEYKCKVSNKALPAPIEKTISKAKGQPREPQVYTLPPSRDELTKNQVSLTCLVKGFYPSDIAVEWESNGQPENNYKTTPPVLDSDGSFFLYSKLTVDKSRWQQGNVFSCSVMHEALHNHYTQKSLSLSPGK
# Sequence (Q95LI8 22-105, stated change not applied, chain 2 of 2): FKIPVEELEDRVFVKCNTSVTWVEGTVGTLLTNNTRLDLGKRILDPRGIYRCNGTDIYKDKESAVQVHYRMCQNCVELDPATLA
# test: KD of scFv-Fc or IgG on cyno CD3εδ-Fc; instrument not given
property: Kd (nM)
Could you give me the number in nM? Just the number is fine.

>>> experimental_result("ADI-45965 (antibody, V domains shown, also called Ab28) VH: QVQLVQSGAEVKKPGASVKVSCKASGFNIKDYYMHWVRQAPGQRLEWIGWIDLENANAVYDAKFQGRVTITRDTSASTAYMELSSLRSEDTAVYYCARDAYGRYFYDVWGQGTLVTVSS VL: DIVMTQSPDSLAVSLGGRATINCKSSQSLLNARTGKNYLAWYQQKPGQPPKLLIYWASTRESGVPDRFSGSGSGTDFTLTISSLQAEDVAVYYCVQSYFRRTFGGGTKVEIK")
1.4

Asked: Provide one value: measured Kd of ADI-45975 (antibody, V domains shown, also called Ab11) VH: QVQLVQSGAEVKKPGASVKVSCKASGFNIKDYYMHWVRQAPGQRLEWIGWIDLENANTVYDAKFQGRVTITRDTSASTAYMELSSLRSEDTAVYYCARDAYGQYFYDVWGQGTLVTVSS VL: DIVMTQSPDSLAVSLGERATINCKSSQSLLNARTRKNYLAWYQQKPGQPPKLLIYWASTRESGVPDRFSGSGSGTDFTLTISSLQAEDVAVYYCKQSYFRRTFGGGTKVEIK
Given back: 1.4

The values you see were collected from patent US20260209352A1.
